assay.name: viability of PTEN-deleted HCT116 cells – cell-based, HCT116 PTEN knockout, dose response (AID 1047);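 further: HCT116 colon tumor cells with PTEN knocked out; cells exposed to compound for 60 hours before readout; potency for loss of cell viability measured by luminescence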
Type: functional
Active and inactive are the calls of the source. How the calls were made is not given here.
experimental.endpoint: EC50

Cn1c(C(=O)NC2CCCCCC2)cc2c(=O)n(C)c3ccccc3c21 ... 24.4 µM (active)
COC(=O)c1ccc(COc2ccccc2/C=C(\C#N)C(=O)Nc2c(C)cc(C)cc2C)cc1 ... 5.83 µM (active)
Cc1oc(-c2ccc(Cl)cc2)nc1CN1CCCC(C(=O)N2CCN(C(=O)c3ccco3)CC2)C1 (stereo unspecified) ... 26 µM (active)
COc1ccc(CCN2CCC(Nc3nc4ccccc4n3Cc3ccc(F)cc3)CC2)cc1 ... 5.87 µM (active)
COc1ccc(NC(=O)Cn2ncc(Cl)c(Cl)c2=O)cc1S(=O)(=O)N1CCOCC1 ... 7.27 µM (active)

Consider the record given below.
Exam item: What measured EC50 goes with `Cc1cccnc1Nc1nc(-c2ccc(O)c(O)c2)cs1` ?
Marked response: 13.3 µM (active)
